target: Human immunodeficiency virus type 1 integrase (Human immunodeficiency virus 1)
Sequence (Q7ZJM1 whole entry): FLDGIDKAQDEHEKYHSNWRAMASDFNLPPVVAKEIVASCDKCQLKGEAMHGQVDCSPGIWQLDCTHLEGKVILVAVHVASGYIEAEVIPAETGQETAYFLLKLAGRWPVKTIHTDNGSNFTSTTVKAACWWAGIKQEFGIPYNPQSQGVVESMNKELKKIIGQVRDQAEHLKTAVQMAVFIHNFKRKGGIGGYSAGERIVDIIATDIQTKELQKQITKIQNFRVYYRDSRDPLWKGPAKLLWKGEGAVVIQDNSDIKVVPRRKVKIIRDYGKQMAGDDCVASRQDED
protocol-summary: Apparent binding affinity to Trx-His-tagged HIV integrase
settings: read-out: Kd(app)
pKd: −log10 of the molar value.
recorded-metric: pKd

>>> measured_value("Cc1ccc(-c2nc(C)c([C@H](OC(C)(C)C)C(=O)O)c(-c3ccc(Cl)cc3)c2C)cc1C")
7.40
>>> measured_value("Cc1nc(-c2cccc(-c3ccnn3C)c2)c(C)c(-c2ccc3c(c2)CCCO3)c1[C@H](OC(C)(C)C)C(=O)O")
7.28
>>> measured_value("Cc1noc(C)c1-c1ccc(-c2nc(C)c([C@H](OC(C)(C)C)C(=O)O)c(-c3ccc4c(c3)CCCO4)c2C)c(F)c1")
7.46
>>> measured_value("Cc1ccc(-c2nc(C)c([C@H](OC(C)(C)C)C(=O)O)c(-c3ccc4c(c3)CCCO4)c2C)cc1C")
7.57

* * *

Test system: Human immunodeficiency virus 1
protocol-summary: Antiviral activity against HIV1 NL4.3 harboring integrase T124/T125 mutant
Assay type: functional, organism-based
settings: Human immunodeficiency virus 1, NL4.3
recorded-metric: EC50 (µM)

>>> measured_value("Cc1nc2ccccc2c(-c2ccc3c(c2)CCCO3)c1[C@H](OC(C)(C)C)C(=O)O")
0.051
>>> measured_value("Cc1nc(-c2ccc(-c3ccncc3)cc2)c(C)c(-c2ccc3c(c2)CCCO3)c1[C@H](OC(C)(C)C)C(=O)O")
0.023
>>> measured_value("Cc1ccc(-c2nc(C)c([C@H](OC(C)(C)C)C(=O)O)c(-c3ccc4c(c3)CCCO4)c2C)cc1C")
0.011

* * *

protocol-summary: Lipophilicity, log D of the compound at pH 7.4
Format: physicochemical
settings: buffer
recorded-metric: logD

>>> measured_value("Cc1noc(C)c1-c1ccc(-c2nc(C)c([C@H](OC(C)(C)C)C(=O)O)c(-c3ccc(Cl)cc3)c2C)cc1")
3.1

* * *

protocol-summary: Half life in bile duct cannulated rat
Format: ADME, organism-based
settings: in vivo
recorded-metric: half-life

>>> measured_value("Cc1noc(C)c1-c1ccc(-c2nc(C)c([C@H](OC(C)(C)C)C(=O)O)c(-c3ccc(Cl)cc3)c2C)cc1")
"5.4 h"
>>> measured_value("Cc1nc2ccccc2c(-c2ccc3c4c(ccnc24)CCO3)c1[C@H](OC(C)(C)C)C(=O)O")
"1.6 h"

* * *

Tested on: Human immunodeficiency virus 1
protocol-summary: Antiviral activity against HIV1 NL4.3 harboring integrase T124/A125 mutant
Type: functional, organism-based
settings: Human immunodeficiency virus 1, NL4.3
Reported EC50 values follow for various compounds
recorded-metric: EC50

>>> measured_value("Cc1nc2c(c(-c3ccc4c(c3)CCCO4)c1[C@H](OC(C)(C)C)C(=O)O)Cc1ccccc1-2")
"110 nM"
>>> measured_value("Cc1nc(-c2ccccc2)c(C)c(-c2ccc3c(c2)CCCO3)c1[C@H](OC(C)(C)C)C(=O)O")
"78 nM"
>>> measured_value("Cc1nc2ccccc2c(-c2ccc3c(c2)CCCO3)c1[C@H](OC(C)(C)C)C(=O)O")
"30 nM"
>>> measured_value("Cc1nc2c(ccc3ccccc32)c(-c2ccc3c(c2)CCCO3)c1[C@H](OC(C)(C)C)C(=O)O")
"63 nM"

* * *

target: UniProtKB Q7ZJM1
protocol-summary: Apparent binding affinity to Trx-His-tagged HIV integrase
settings: read-out: Kd(app)
recorded-metric: Kd (nM)

>>> measured_value("Cc1cc(-c2nc(C)c([C@H](OC(C)(C)C)C(=O)O)c(-c3ccc4c(c3)CCCO4)c2C)ccc1Cl")
17
>>> measured_value("Cc1ccc(-c2nc(C)c([C@H](OC(C)(C)C)C(=O)O)c(-c3ccc4c(c3C)CCCO4)c2C)cc1C (single isomer, unassigned; atropisomer)")
26
>>> measured_value("Cc1ccc(-c2nc(C)c([C@H](OC(C)(C)C)C(=O)O)c(-c3ccc4c(c3Cl)NCCO4)c2C)cc1C (single isomer, unassigned; atropisomer)")
28
>>> measured_value("Cc1nc(-c2ccc(-c3ccncc3)cc2)c(C)c(-c2ccc3c(c2)CCCO3)c1[C@H](OC(C)(C)C)C(=O)O")
24
>>> measured_value("Cc1nc(-c2cccc(-c3cnn(C)c3)c2)c(C)c(-c2ccc3c(c2)CCCO3)c1[C@H](OC(C)(C)C)C(=O)O")
59
>>> measured_value("Cc1nc(-c2ccccc2)c(C)c(-c2ccc3c(c2)CCCO3)c1[C@H](OC(C)(C)C)C(=O)O")
40
>>> measured_value("Cc1noc(C)c1-c1ccc(-c2nc(C)c([C@H](OC(C)(C)C)C(=O)O)c(-c3ccc(Cl)cc3)c2C)cc1")
50
>>> measured_value("Cc1ccc(-c2nc(C)c([C@H](OC(C)(C)C)C(=O)O)c(-c3ccc4c(c3)CCCO4)c2C)cc1")
31
